All figures here come from the supplement of paper PMC8371130.

tested on: HL-1; assay: relative cell viability (CellTiter-Glo) vs DMSO control (% of DMSO control); higher = more viable cells; settings: oxygen condition: hypoxia 48 h (1% O2) + reoxygenation 24 h; 40 nM
property: relative cell viability
Quick one: just the number, no unit, thanks!

Sample answers from the record:
• COc1cc2c(cc1O)CC[C@@H]1[C@@H]2CC[C@]2(C)[C@@H](O)CC[C@@H]12 = 106
• C[C@@](Cc1ccc(O)c(O)c1)(NN)C(=O)O = 101
• COC(=O)C1=C(C)NC(C)=C(C(=O)OCCN2CCN(C(c3ccccc3)c3ccccc3)CC2)C1c1cccc([N+](=O)[O-])c1 (centres undefined) = 103
• C[C@@H]1C[C@H]2[C@@H]3C[C@H](F)C4=CC(=O)C=C[C@]4(C)[C@@]3(F)[C@@H](O)C[C@]2(C)[C@@]1(O)C(=O)CO = 105
• N[C@H](Cc1ccccc1)C(=O)O = 103

Write down relative cell viability measured for item `O=c1[nH]cc(F)c(=O)[nH]1`
110

Write down relative cell viability measured for item CCN(CC)CC#CCOC(=O)C(O)(c1ccccc1)C1CCCCC1 (centres undefined) [Oxybutynin chloride]
94.2

Write down relative cell viability measured for item `Nc1ccn([C@@H]2O[C@H](CO)[C@@H](O)[C@H]2O)c(=O)n1`
101

###

test system: HL-1; assay: relative cell viability (CellTiter-Glo) vs DMSO control (% of DMSO control); higher = more viable cells; conditions: oxygen condition: hypoxia 48 h (1% O2) + reoxygenation 24 h; 5000 nM
Counter-ions that a name gives are not always drawn.
property: relative cell viability
Quick one: just the number, no unit, thanks!

Sample answers from the record:
- C[C@H]1O[C@H](O[C@H]2[C@H](O)[C@@H](O)[C@@H](O[C@H]3[C@H](O)[C@@H](O)C(O)O[C@@H]3CO)O[C@@H]2CO)[C@H](O)[C@@H](O)[C@@H]1N[C@H]1C=C(CO)[C@@H](O)[C@H](O)[C@H]1O (stereo not given in full): 107
- CC1=NN(c2ccc(C)c(C)c2)C(=O)/C1=N\Nc1cccc(-c2cccc(C(=O)O)c2)c1O: 107
- C=C1CC[C@H](O)C/C1=C/C=C1\CCC[C@]2(C)[C@@H]([C@H](C)CCCC(C)(C)O)CC[C@@H]12: 109
- CN[C@H](CC(C)C)C(=O)N[C@H]1C(=O)N[C@@H](CC(N)=O)C(=O)N[C@H]2C(=O)N[C@H]3C(=O)N[C@H](C(=O)N[C@H](C(=O)O)c4cc(O)cc(O)c4-c4cc3ccc4O)[C@H](O)c3ccc(c(Cl)c3)Oc3cc2cc(c3O[C@@H]2O[C@H](CO)[C@@H](O)[C@H](O)[C@H]2O[C@H]2C[C@](C)(N)[C@H](O)[C@H](C)O2)Oc2ccc(cc2Cl)[C@H]1O [Vancomycin HCl]: 114

Shift focus to the following entry.
Write down relative cell viability measured for item `NCCCCCC(=O)O`
107

###

Property: relative cell viability; scope: individual molecules
tested on: HL-1; assay: relative cell viability (CellTiter-Glo) vs DMSO control (% of DMSO control); higher = more viable cells; conditions: oxygen condition: normoxia 72 h; 1000 nM
Counter-ions that a name gives are not always drawn.
Quick one: just the number, no unit, thanks!

Sample answers from the record:
- CCC(=O)O[C@@H](O[P@](=O)(CCCCc1ccccc1)CC(=O)N1C[C@H](C2CCCCC2)C[C@H]1C(=O)O)C(C)C [Fosinopril sodium]: 106
- COc1cccc2c1C(=O)c1c(O)c3c(c(O)c1C2=O)C[C@@](O)(C(=O)CO)C[C@@H]3O[C@H]1C[C@H](N)[C@@H](O)[C@H](C)O1 [Epirubicin Hydrochloride]: 91.7
- CC(CCc1ccc(O)cc1)NCC(O)c1ccc(O)cc1 (centres undefined) [Ractopamine HCl]: 106
- NS(=O)(=O)c1cc(C(=O)O)c(NCc2ccco2)cc1Cl [Furosemide]: 111
- COc1cc(Nc2c(C#N)cnc3cc(OCCCN4CCN(C)CC4)c(OC)cc23)c(Cl)cc1Cl: 107
- CC(C)C[C@H](NC(=O)[C@@H](O)[C@H](N)Cc1ccccc1)C(=O)O: 99.7

Write down relative cell viability measured for item CCCC(=O)OCOC(=O)C1=C(C)NC(C)=C(C(=O)OC)C1c1cccc(Cl)c1Cl (centres undefined)
96.5

Write down relative cell viability measured for item `COc1nc(C)nc(Cl)c1NC1=NCCN1`
107

Write down relative cell viability measured for item CN1CCN(CCCN2c3ccccc3Sc3ccc(C(F)(F)F)cc32)CC1 [Trifluoperazine 2HCl]
103

###

system: HL-1; assay: relative cell viability (CellTiter-Glo) vs DMSO control (% of DMSO control); higher = more viable cells; conditions: oxygen condition: hypoxia 48 h (1% O2) + reoxygenation 24 h; 40 nM
Structures can show the parent of a compound that is named as a salt.
Threshold 100: relative cell viability strictly smaller gives 1, otherwise -1.

// known answers, use as guide
• CCc1ccc(CCOc2ccc(CC3SC(=O)NC3=O)cc2)nc1 (configuration not stated) [Pioglitazone hydrochloride] = -1
• O=C(O)Cc1cc(I)c(Oc2ccc(O)c(I)c2)c(I)c1 [Tiratricol] = 1
• COC(=O)N[C@H](C(=O)N[C@@H](Cc1ccccc1)[C@@H](O)CN(Cc1ccc(-c2ccccn2)cc1)NC(=O)[C@@H](NC(=O)OC)C(C)(C)C)C(C)(C)C [Atazanavir sulfate] = -1
• COc1ccccc1OCC(O)CN1CCN(CC(=O)Nc2c(C)cccc2C)CC1 (configuration not stated) [Ranolazine dihydrochloride] = 1
• COc1ccc(CN2CCN(C(c3ccc(F)cc3)c3ccc(F)cc3)CC2)c(OC)c1OC [Lomerizine HCl] = 1

Dear reviewer, please state whether CN(C)CCN(Cc1cccs1)c1ccccn1 [Methapyrilene HCl] has relative cell viability strictly beneath 100.
-1

Dear reviewer, please state whether CC1=C(CC(=O)O)c2cc(F)ccc2/C1=C\c1ccc([S+](C)[O-])cc1 (configuration not stated) [Sulindac] has relative cell viability strictly beneath 100.
-1

Dear reviewer, please state whether O=P(O)(O)C(O)(Cn1ccnc1)P(=O)(O)O [Zoledronic Acid] has relative cell viability strictly beneath 100.
-1

###

system: HL-1; assay: relative cell viability (CellTiter-Glo) vs DMSO control (% of DMSO control); higher = more viable cells; conditions: oxygen condition: hypoxia 48 h (1% O2) + reoxygenation 24 h; 1000 nM
Structures can show the parent of a compound that is named as a salt.
property: relative cell viability
Quick one: just the number, no unit, thanks!

Write down relative cell viability measured for item CC[C@@H](CO)NCCN[C@@H](CC)CO [Ethambutol HCl]
102

Write down relative cell viability measured for item Cc1ncc(C[n+]2csc(CCO)c2C)c(N)n1 [Thiamine HCl]
102

Write down relative cell viability measured for item CCOC(=O)c1ccc(OC(=O)CCCCCNC(=N)N)cc1 [Gabexate mesylate]
112

Write down relative cell viability measured for item `CS(=O)(=O)c1ccc([C@@H](O)[C@@H](CO)NC(=O)C(Cl)Cl)cc1`
109

Write down relative cell viability measured for item CCCOc1ccc(C(=O)OCCN(CC)CC)cc1N [Proparacaine HCl]
97.8

Write down relative cell viability measured for item `NC[C@H]1CC[C@H](C(=O)O)CC1`
100

Write down relative cell viability measured for item `CCCCC[C@H](O)/C=C/[C@H]1[C@H](O)CC(=O)[C@@H]1CCCCCCC(=O)O`
107

Write down relative cell viability measured for item `N[C@@H](Cc1ccc(O)c(O)c1)C(=O)O`
107

Write down relative cell viability measured for item `CCCCN(CCCC)CCCOC(=O)c1ccc(N)cc1`
106

Write down relative cell viability measured for item CCCCCCCCOc1ccccc1C(=O)Nc1ccc(C(=O)OCC[N+](C)(CC)CC)cc1 [Otilonium Bromide]
108

Write down relative cell viability measured for item NS(=O)(=O)Cc1noc2ccccc12 [Zonisamide]
107

Write down relative cell viability measured for item `CS(=O)(=O)OCCCCOS(C)(=O)=O`
103

Write down relative cell viability measured for item CCCNCC(O)COc1ccccc1C(=O)CCc1ccccc1 (stereo not drawn)
108

Write down relative cell viability measured for item `C=CC(=O)N1CCC[C@@H](n2nc(-c3ccc(Oc4ccccc4)cc3)c3c(N)ncnc32)C1`
101

Write down relative cell viability measured for item C=C[C@H]1CN2CC[C@H]1C[C@H]2[C@H](O)c1ccnc2ccc(OC)cc12 [Quinine hydrochloride dihydrate]
102

Write down relative cell viability measured for item `COc1ccc2cc1Oc1ccc(cc1)C[C@H]1c3c(cc4c(c3Oc3cc5c(cc3OC)CCN(C)[C@@H]5C2)OCO4)CCN1C`
87

Write down relative cell viability measured for item `CNC[C@@H](O)c1ccc(O)c(O)c1`
100

Write down relative cell viability measured for item CCCC(CCC)C(=O)O[C@H]1C[C@H]2CC[C@@H](C1)[N+]2(C)C [Anisotropine Methylbromide]
93.2

Write down relative cell viability measured for item `N#C[C@@H]1CCCN1C(=O)CNC12CC3CC(CC(O)(C3)C1)C2`
114

Write down relative cell viability measured for item `C[C@]12CC[C@@H]3c4ccc(O)cc4CC[C@H]3[C@@H]1CC[C@@H]2O`
100
